The origin of these recorded values is ChEMBL document CHEMBL1201862.

- target or system: Replicative DNA helicase DnaB (Mycobacterium tuberculosis)
- experimental details: DnaB intein splicing inhibitors, dose response, biochemical, cell-free fluorescence (AID 449749)
- Assay type: functional
The source made the active and inactive calls.
Classes used: true for active, false for inactive

[
  {
    "molecule": "N#Cc1c(Cl)c(Cl)c2nnc(-c3ccc(Br)cc3)n2c1Cl",
    "target or system": "Replicative DNA helicase DnaB (Mycobacterium tuberculosis)",
    "assigned label": "true"
  },
  {
    "molecule": "O=C(CCl)N1CCCC1c1ccc2c(c1)OCCO2 (stereo unspecified)",
    "target or system": "Replicative DNA helicase DnaB (Mycobacterium tuberculosis)",
    "assigned label": "true"
  },
  {
    "molecule": "Oc1cc(O)c2c(c1)O[C@H](c1ccc(O)c(O)c1)[C@@H](O)C2",
    "target or system": "Replicative DNA helicase DnaB (Mycobacterium tuberculosis)",
    "assigned label": "true"
  },
  {
    "molecule": "CC1=NN(Cc2ccccc2)C(=O)C1C(c1ccc(Cl)cc1)C(C#N)C#N (stereo unspecified)",
    "target or system": "Replicative DNA helicase DnaB (Mycobacterium tuberculosis)",
    "assigned label": "true"
  },
  {
    "molecule": "Nc1nc(CCl)nc(Nc2ccc3ccccc3c2)n1",
    "target or system": "Replicative DNA helicase DnaB (Mycobacterium tuberculosis)",
    "assigned label": "true"
  },
  {
    "molecule": "CCOC(=O)c1nnc(-c2ccccc2)nc1Sc1c(Cl)cccc1Cl",
    "target or system": "Replicative DNA helicase DnaB (Mycobacterium tuberculosis)",
    "assigned label": "true"
  },
  {
    "molecule": "O=C(CCl)N1N=C(c2cccs2)CC1c1ccco1 (stereo unspecified)",
    "target or system": "Replicative DNA helicase DnaB (Mycobacterium tuberculosis)",
    "assigned label": "true"
  },
  {
    "molecule": "O=C(CSc1ncnc2c1nnn2Cc1ccccc1F)N1CCN(c2ccccc2)CC1",
    "target or system": "Replicative DNA helicase DnaB (Mycobacterium tuberculosis)",
    "assigned label": "true"
  },
  {
    "molecule": "COC(=O)C(C#N)C(c1cccnc1)c1c(C)n[nH]c1O (stereo unspecified)",
    "target or system": "Replicative DNA helicase DnaB (Mycobacterium tuberculosis)",
    "assigned label": "true"
  },
  {
    "molecule": "c1ccc(C2[C@H]3CN(Cc4cccnc4)[C@H](c4ccccc4)C34CC2(c2cccnc2)C4)cc1 (stereo partly specified)",
    "target or system": "Replicative DNA helicase DnaB (Mycobacterium tuberculosis)",
    "assigned label": "true"
  },
  {
    "molecule": "COc1cc(/C=C(\\C#N)c2nc3ccccc3o2)ccc1O",
    "target or system": "Replicative DNA helicase DnaB (Mycobacterium tuberculosis)",
    "assigned label": "false"
  }
]

====

- experimental details: Luminescence Cell-Based Dose Confirmation HTS to Identify Inhibitors of Platelet Dense Granule Release. [Related pubchem assays: 1663 (Primary HTS), 1678 (Summary of Project)]
- Type: functional
Active and inactive are the calls of the source.
Below, each entry is listed alongside its reported EC50.

[
  {
    "smiles repr": "O=C(NCCCN1CCOCC1)c1ccccc1",
    "EC50": "> 112 µM (not active)"
  },
  {
    "smiles repr": "Cc1cccc(OCC(=O)N2CCN(C(=O)c3cccs3)CC2)c1",
    "EC50": "> 112 µM (not active)"
  },
  {
    "smiles repr": "CC(=O)c1c(S)nc(-c2ccccc2)nc1N1CCN(C)CC1",
    "EC50": "> 112 µM (not active)"
  },
  {
    "smiles repr": "COc1cccc(/C=N/NC(=O)c2ccoc2C)c1O",
    "EC50": "2.09 µM (active)"
  }
]

====

- Test system: INS1
- experimental details: INS-1E survival protection against cytokine death – cell-based, luminescence, retest, dose response (AID 449756);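 further: cell death triggered by IL-1 beta plus TNF-alpha plus IFN-gamma mixture; protective hits raise ATP signal compared with cytokine alone wells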
- Assay type: functional
- applied conditions: Rattus norvegicus
Activity calls are given as the source filed them.
Below, each entry is listed alongside its reported AC50.

[
  {
    "smiles repr": "Cc1ccc2c(c1)[nH]c1c(N3CCN(Cc4ccccc4)CC3)ncnc12",
    "AC50": "3.89 µM (active)"
  },
  {
    "smiles repr": "COc1cccc(/C=N/NC(=O)c2ccoc2C)c1O",
    "AC50": "3.85 µM (active)"
  },
  {
    "smiles repr": "Cc1ccc(-c2c[n+](-c3ccc(OC(F)F)cc3)c3n2CCCCC3)cc1",
    "AC50": "1.52 µM (active)"
  },
  {
    "smiles repr": "CCN(CC)S(=O)(=O)c1cccc(NC(=O)c2cc(-c3cccs3)nn2-c2ccccc2)c1",
    "AC50": "10.3 µM (active)"
  },
  {
    "smiles repr": "Cc1ccc(-c2cc(-c3ccccc3)cc(-c3ccccc3)[n+]2-c2ccccc2)cc1.[O-][Cl+3]([O-])([O-])[O-]",
    "AC50": "1.89 µM (active)"
  }
]

====

- target or system: Cytochrome P450 2D6 (Homo sapiens);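 further: CYP2D6 member of a cytochrome P450 panel assay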
- Sequence (P10635 whole entry): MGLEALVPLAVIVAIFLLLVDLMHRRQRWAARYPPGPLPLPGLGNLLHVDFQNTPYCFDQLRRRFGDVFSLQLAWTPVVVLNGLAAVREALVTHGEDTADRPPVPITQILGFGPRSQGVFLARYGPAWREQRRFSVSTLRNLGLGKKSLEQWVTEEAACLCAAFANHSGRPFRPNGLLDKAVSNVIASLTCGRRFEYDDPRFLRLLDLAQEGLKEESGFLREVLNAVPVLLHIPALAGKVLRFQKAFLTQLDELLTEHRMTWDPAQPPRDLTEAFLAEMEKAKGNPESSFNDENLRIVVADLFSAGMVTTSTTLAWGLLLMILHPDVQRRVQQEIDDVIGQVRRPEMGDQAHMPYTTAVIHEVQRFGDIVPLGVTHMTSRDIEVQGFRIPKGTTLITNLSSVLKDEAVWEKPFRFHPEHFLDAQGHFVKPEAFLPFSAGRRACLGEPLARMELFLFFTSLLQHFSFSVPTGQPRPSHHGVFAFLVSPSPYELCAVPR

[
  {
    "compound": "CO[C@@H](C)[C@](O)(C(=O)OCC1=CCN2CC[C@@H](O)[C@H]12)C(C)C",
    "AC50": "3.98 µM (inconclusive)"
  },
  {
    "compound": "CS(=O)(=O)N1CCC2(CCN(Cc3ccncc3)CC2)CC1",
    "AC50": "25.1 µM (inconclusive)"
  },
  {
    "compound": "Cc1ccc2c(c1)nnn2C1CCN(S(=O)(=O)c2ccc(C(=O)N3C(C)CCCC3C)cc2)CC1 (centres undefined)",
    "AC50": "0.158 µM (inconclusive)"
  },
  {
    "compound": "CCN=C(S)NNC(=O)CCn1c2ccccc2c2ccccc21",
    "AC50": "14.1 µM (inconclusive)"
  },
  {
    "compound": "COCC(=O)N1CCC2(CC1)CN(c1ccncc1)C2",
    "AC50": "25.1 µM (inconclusive)"
  },
  {
    "compound": "COc1cc(/C=N\\Nc2nc3ccccc3[nH]2)cc(OC)c1OC",
    "AC50": "17.8 µM (inconclusive)"
  },
  {
    "compound": "O=C(c1ccccc1)[C@H](Nc1ccc2ccccc2c1)c1ccccc1",
    "AC50": "1.58 µM (inconclusive)"
  },
  {
    "compound": "CCSc1nnc(NC(=O)CSc2nc3c(cc2C#N)CCCC3)s1",
    "AC50": "3.55 µM (inconclusive)"
  },
  {
    "compound": "O=S(=O)(Nc1ccc2c(c1)OCCO2)c1cccc2cccnc12",
    "AC50": "39.8 µM (inconclusive)"
  },
  {
    "compound": "Cc1c(C(=O)NCCC2=CCCCC2)cccc1[N+](=O)[O-]",
    "AC50": "15.8 µM (inconclusive)"
  },
  {
    "compound": "CC(C)(C)NC(=O)CSc1nnc(Cc2ccc3c(c2)OCO3)n1C1CCCCC1",
    "AC50": "2.82 µM (inconclusive)"
  },
  {
    "compound": "CN(C)C(=O)c1ccc(-c2nc(NCc3cccs3)c3ccccc3n2)cc1",
    "AC50": "25.1 µM (inconclusive)"
  },
  {
    "compound": "CCCCOc1ccc(/C=C/C(=O)NCCc2nc3ccccc3[nH]2)cc1",
    "AC50": "14.1 µM (inconclusive)"
  },
  {
    "compound": "COCCn1c(=O)c(-c2ccc(Cl)cc2)nc2cnc(OC)nc21",
    "AC50": "25.1 µM (inconclusive)"
  },
  {
    "compound": "CCCCCCCCCCCCC/C=C\\[C@@H](O)[C@H](CO)NC(C)=O",
    "AC50": "3.98 µM (inconclusive)"
  },
  {
    "compound": "COCc1nnc(NC(=O)CCN2C(=O)c3ccccc3C2=O)s1",
    "AC50": "17.8 µM (inconclusive)"
  },
  {
    "compound": "CS(=O)(=O)Nc1cccc(-c2nccc(Nc3ccc(F)cc3)n2)c1",
    "AC50": "39.8 µM (inconclusive)"
  },
  {
    "compound": "COc1cc(/C=N/Nc2snc(SC)c2C#N)cc(OC)c1OC",
    "AC50": "12.6 µM (inconclusive)"
  },
  {
    "compound": "Cc1cnc(CNc2ncncc2-c2ccccc2Cl)cn1",
    "AC50": "25.1 µM (inconclusive)"
  },
  {
    "compound": "CN1CCN(c2ncc3nc(-c4ccccc4)c(=O)n(CCC#N)c3n2)CC1",
    "AC50": "25.1 µM (inconclusive)"
  },
  {
    "compound": "CC(=O)NCCNc1nc(-c2cccc(NS(C)(=O)=O)c2)nc2ccccc12",
    "AC50": "10 µM (inconclusive)"
  },
  {
    "compound": "Cn1c(CCN2CCCCC2)nc2cc([N+](=O)[O-])ccc21",
    "AC50": "14.1 µM (inconclusive)"
  },
  {
    "compound": "CCCNC(=O)Cn1cnc2sc(C(=O)Nc3ccc4c(c3)OCO4)c(C)c2c1=O",
    "AC50": "5.01 µM (inconclusive)"
  },
  {
    "compound": "O=C(CSc1nc2ccccc2c(=O)n1CCCO)NCc1ccccc1",
    "AC50": "39.8 µM (inconclusive)"
  }
]
